- Tested on: HEK-293T
- assay_summary: Multiplex assay against HEK293T
- Format: toxicity, cell-based
- measurement_context: human, 12 h, 1 µM, compound concentration 1 uM, replicate 1
value_type: Population Mitochondria Different-Phenotype (%)
Write it as a number; the unit % goes unstated.

Per the record, CCn1c(-c2nonc2N)nc2cnc(Oc3cccc(NC(=O)c4ccc(OCCN5CCOCC5)cc4)c3)cc21 [GSK-269962A] has Population Mitochondria Different-Phenotype (%) of 75

Per the record, N#Cc1cnc(Nc2cc(NC[C@H]3CNCCO3)c(C(F)(F)F)cn2)cn1 has Population Mitochondria Different-Phenotype (%) of 3

Per the record, COc1cc2c(Nc3ccc(NC(=O)c4ccccc4)cc3)ncnc2cc1OCCCN1CCOCC1 has Population Mitochondria Different-Phenotype (%) of 17

Per the record, Cc1cn(-c2cc(NC(=O)c3ccc4c(c3)CN(c3cncnc3)C[C@@H]4C)cc(C(F)(F)F)c2)cn1 has Population Mitochondria Different-Phenotype (%) of 6

Per the record, CN(C)CCOc1ccc(-c2nc(-c3ccncc3)c(-c3ccc4c(c3)CC/C4=N\O)[nH]2)cc1 has Population Mitochondria Different-Phenotype (%) of 8

Per the record, CC(C)N1CCC(C)(C)c2cc(C#Cc3ccc(C(=O)O)cc3)ccc21 has Population Mitochondria Different-Phenotype (%) of 74

Per the record, CCOc1cc(N2CCC(O)CC2)ccc1Nc1ncc2c(n1)N(C1CCCC1)CCC(=O)N2C has Population Mitochondria Different-Phenotype (%) of 5

Per the record, CC(C)(C)c1cnc(CSc2cnc(NC(=O)C3CCNCC3)s2)o1 has Population Mitochondria Different-Phenotype (%) of 8

Per the record, CNC(=O)c1nn(C)c2c1C(C)(C)Cc1cnc(Nc3ccc(N4CCN(C)CC4)cc3)nc1-2 has Population Mitochondria Different-Phenotype (%) of 25

---

Would you kindly list Population Membrane Permeable-Phenotype (%) for each of these molecules?
- Tested on: U2OS
- assay_summary: Multiplex assay against U2OS
- Type: toxicity, cell-based
- measurement_context: human, 24 h, 10 µM, compound concentration 10 uM, replicate 2
Write it as a number; the unit % goes unstated.

Per the record, Cc1nc(Cc2cccc(C(F)(F)F)c2)sc1-c1ccc(C(N)=O)nc1 [TP-024n] has Population Membrane Permeable-Phenotype (%) of 25

Per the record, Cl.Cl.Nc1ncnc2c1c(-c1cccc(OCc3ccccc3)c1)cn2[C@H]1C[C@@H](CN2CCC2)C1 has Population Membrane Permeable-Phenotype (%) of 93

Per the record, CCC(=O)O[C@]1(C(=O)SCF)[C@H](C)C[C@H]2[C@@H]3C[C@H](F)C4=CC(=O)C=C[C@]4(C)[C@@]3(F)[C@@H](O)C[C@@]21C [FLUTICASONE PROPIONATE] has Population Membrane Permeable-Phenotype (%) of 6

Per the record, COc1cc2c(NC3CCN(C(C)C)CC3)nc(N3CCC(F)(F)CC3)nc2cc1OCCCN1CCCC1 has Population Membrane Permeable-Phenotype (%) of 82

---

Would you kindly list Growth Rate for each of these compounds?
- System: HEK-293T
- assay_summary: Incucyte cell viability with HEK293T; also: filed as whole numbers so only -1 and 0 and 1 occur
- Assay type: toxicity, cell-based
- measurement_context: human, 18 h, 10 µM, compound concentration 10 uM, replicate number 1, timepoint 18 hours
Lab note: write the figure by itself, no unit.

Per the record, CCCCc1nc2ccc(NC(=O)NC3CCCCC3)cc2n1Cc1ccc(-c2ccccc2C(=O)O)cc1 has Growth Rate of 0

Per the record, CCOc1cc(N2CCC(O)CC2)ccc1Nc1ncc2c(n1)N(C1CCCC1)CCC(=O)N2C has Growth Rate of 1

Per the record, CCn1c(-c2nonc2N)nc2cnc(Oc3cccc(NC(=O)c4ccc(OCCN5CCOCC5)cc4)c3)cc21 [GSK-269962A] has Growth Rate of 0

Per the record, CC(C)N1CCC(C)(C)c2cc(C#Cc3ccc(C(=O)O)cc3)ccc21 has Growth Rate of 0

Per the record, CN1C(=O)[C@@H](N2CCc3c(nn(Cc4ccccc4)c3Br)C2=O)COc2ccccc21 [TP-030-2] has Growth Rate of 1

Per the record, Cc1nc(C#Cc2ccnc(Cl)c2)c(C)n1-c1ccc(OC(F)(F)F)cc1 has Growth Rate of 0

Per the record, CN(C)C(=O)c1ccc(-c2cc(C(=O)N(C)C3CCCC3)no2)cc1O has Growth Rate of 1

Per the record, COc1ccccc1C(=O)Nc1cc2c(cc1N1CCCC1)n(C)c(=O)n2C has Growth Rate of 1

Per the record, CC(C)Oc1ccc(-c2nn([C@@H](C)c3oc4ccc(F)cc4c(=O)c3-c3cccc(F)c3)c3ncnc(N)c23)cc1F [UMBRALISIB] has Growth Rate of 0

Per the record, N#Cc1c(N)nc(SCC(N)=O)c(C#N)c1-c1ccc(OCC2CC2)cc1 has Growth Rate of 0

Per the record, COc1ccc(COc2ccc(Cc3cnc(N)nc3N)cc2OC)cc1 [GW632580X] has Growth Rate of 0

Per the record, C=CCN1C[C@H](C)N([C@H](c2ccc(C(=O)N(CC)CC)cc2)c2cccc(O)c2)C[C@H]1C has Growth Rate of 0

Per the record, Cc1cn(-c2cc(NC(=O)c3ccc4c(c3)CN(c3cncnc3)C[C@@H]4C)cc(C(F)(F)F)c2)cn1 has Growth Rate of 0

Per the record, CNC(=O)c1cc(Oc2ccc(NC(=O)Nc3cc(C(C)(C)C)nn3-c3ccc4ncccc4c3)c(F)c2)ccn1 [REBASTINIB] has Growth Rate of 0

Per the record, CC(=O)N1CCC(c2ccc(C(=O)NC3=NCCN3)cc2C(F)(F)F)CC1 [BI 0054] has Growth Rate of 1

Per the record, N#Cc1ccccc1OCC(O)CNCCNC(=O)Nc1ccccc1 (stereo not drawn) [ICI-89406] has Growth Rate of 1

Per the record, Cc1cccc(NC(=O)N[C@@H]2N=C(c3ccccc3)c3ccccc3N(C)C2=O)c1 [L-365260] has Growth Rate of 0

Per the record, CCOC(=O)c1cc(C#N)c(N2CCC(C(=O)NS(=O)(=O)Cc3ccccc3)CC2)nc1C has Growth Rate of 0

---

- Test system: U2OS
- assay_summary: Multiplex assay against U2OS
- Format: toxicity, cell-based
- measurement_context: human, 24 h, 10 µM, compound concentration 10 uM, replicate 1
value_type: Population Mitotic Cells (%)
Write it as a number; the unit % goes unstated.

Per the record, N#Cc1cnc(Nc2cc(NC[C@H]3CNCCO3)c(C(F)(F)F)cn2)cn1 has Population Mitotic Cells (%) of 81

Per the record, COc1cc2c(Nc3ccc(NC(=O)c4ccccc4)cc3)ncnc2cc1OCCCN1CCOCC1 has Population Mitotic Cells (%) of 81

Per the record, CCn1c(-c2nonc2N)nc2cnc(Oc3cccc(NC(=O)c4ccc(OCCN5CCOCC5)cc4)c3)cc21 [GSK-269962A] has Population Mitotic Cells (%) of 29

Per the record, Nc1nc2c(c(N3CCNCC3)n1)CCC1=C2[C@@H]2CCCC[C@@H]2O1 has Population Mitotic Cells (%) of 59

Per the record, CCCn1c(=O)c2[nH]c(C34CC5CC(CC3C5)C4)nc2n(CCC)c1=O has Population Mitotic Cells (%) of 39

---

Would you kindly list Population Normal (%) for each of these compounds?
- Test system: U2OS
- assay_summary: Multiplex assay against U2OS
- Assay type: toxicity, cell-based
- measurement_context: human, 24 h, 1 µM, compound concentration 1 uM, replicate 1
Write it as a number; the unit % goes unstated.

Per the record, Cl.Cl.Nc1ncnc2c1c(-c1cccc(OCc3ccccc3)c1)cn2[C@H]1C[C@@H](CN2CCC2)C1 has Population Normal (%) of 95

Per the record, CC(=O)c1cc(-c2cc(C(=O)NC3CC3)ccc2C)c2ncccn12 has Population Normal (%) of 96

Per the record, Cc1cn(-c2cc(NC(=O)c3ccc4c(c3)CN(c3cncnc3)C[C@@H]4C)cc(C(F)(F)F)c2)cn1 has Population Normal (%) of 96

Per the record, CC(C)N1CCC(C)(C)c2cc(C#Cc3ccc(C(=O)O)cc3)ccc21 has Population Normal (%) of 92

Per the record, Cc1nc(Cc2cccc(C(F)(F)F)c2)sc1-c1ccc(C(N)=O)nc1 [TP-024n] has Population Normal (%) of 95

Per the record, COc1cc2c(Nc3ccc(NC(=O)c4ccccc4)cc3)ncnc2cc1OCCCN1CCOCC1 has Population Normal (%) of 97

Per the record, CCCn1c(=O)c2[nH]c(C34CC5CC(CC3C5)C4)nc2n(CCC)c1=O has Population Normal (%) of 97

Per the record, Nc1nc2c(c(N3CCNCC3)n1)CCC1=C2[C@@H]2CCCC[C@@H]2O1 has Population Normal (%) of 95

Per the record, Cc1cc2c(cc1N1C(=O)c3cccc4c(CCCO)ccc(c34)C1=O)n(C)c(=O)n2C has Population Normal (%) of 96
